- Tgt: hERG (KCNH2) (Homo sapiens)
- Sequence (Q12809 whole entry): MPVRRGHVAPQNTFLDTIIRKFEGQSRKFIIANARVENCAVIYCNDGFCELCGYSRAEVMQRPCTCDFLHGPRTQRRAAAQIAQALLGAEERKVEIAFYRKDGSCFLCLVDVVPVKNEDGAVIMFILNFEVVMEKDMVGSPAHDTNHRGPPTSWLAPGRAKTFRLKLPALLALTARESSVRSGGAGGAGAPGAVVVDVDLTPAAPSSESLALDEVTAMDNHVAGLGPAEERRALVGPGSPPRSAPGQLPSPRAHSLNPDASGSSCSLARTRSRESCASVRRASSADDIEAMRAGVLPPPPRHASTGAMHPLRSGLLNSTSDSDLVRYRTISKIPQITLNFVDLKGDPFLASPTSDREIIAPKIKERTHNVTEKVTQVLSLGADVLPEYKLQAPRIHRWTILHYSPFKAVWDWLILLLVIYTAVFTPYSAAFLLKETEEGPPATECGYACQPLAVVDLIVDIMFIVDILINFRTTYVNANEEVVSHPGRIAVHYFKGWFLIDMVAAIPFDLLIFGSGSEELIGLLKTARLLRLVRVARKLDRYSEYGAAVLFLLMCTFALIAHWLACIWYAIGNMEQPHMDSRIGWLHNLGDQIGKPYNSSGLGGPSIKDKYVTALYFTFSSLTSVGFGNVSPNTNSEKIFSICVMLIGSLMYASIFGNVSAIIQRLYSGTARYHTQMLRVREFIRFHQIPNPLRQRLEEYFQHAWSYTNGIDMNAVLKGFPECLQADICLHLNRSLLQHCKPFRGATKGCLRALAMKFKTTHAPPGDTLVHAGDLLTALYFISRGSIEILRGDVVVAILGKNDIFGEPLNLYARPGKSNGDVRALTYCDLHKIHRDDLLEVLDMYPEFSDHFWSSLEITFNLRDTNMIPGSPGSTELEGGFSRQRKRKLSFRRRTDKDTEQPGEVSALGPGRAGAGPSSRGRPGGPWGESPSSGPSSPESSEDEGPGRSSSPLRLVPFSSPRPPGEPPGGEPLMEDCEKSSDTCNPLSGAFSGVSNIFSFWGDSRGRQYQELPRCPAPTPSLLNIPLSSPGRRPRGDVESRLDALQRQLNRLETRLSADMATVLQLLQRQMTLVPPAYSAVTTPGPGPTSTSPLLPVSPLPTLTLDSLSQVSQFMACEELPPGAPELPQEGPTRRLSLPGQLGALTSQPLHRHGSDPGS
- Assay remarks: Displacement of [35S]MK-0499 from human ERG at 3 uM after >90 mins by scintillation counting
- Run parameters: probe [35S]MK-0499
Metric: inhibition at […], 3 µM (%)
Please give a number only; it is taken to be in %.

Data request: Please look at this molecule and report its inhibition at […], 3 µM: CCCCCCCC(O)(C(N)=O)c1cccc(Cl)c1 (racemic)
Data returned: 15

---

- Tgt: Sodium channel protein type 9 subunit alpha (Homo sapiens)
- Sequence (Q15858 whole entry): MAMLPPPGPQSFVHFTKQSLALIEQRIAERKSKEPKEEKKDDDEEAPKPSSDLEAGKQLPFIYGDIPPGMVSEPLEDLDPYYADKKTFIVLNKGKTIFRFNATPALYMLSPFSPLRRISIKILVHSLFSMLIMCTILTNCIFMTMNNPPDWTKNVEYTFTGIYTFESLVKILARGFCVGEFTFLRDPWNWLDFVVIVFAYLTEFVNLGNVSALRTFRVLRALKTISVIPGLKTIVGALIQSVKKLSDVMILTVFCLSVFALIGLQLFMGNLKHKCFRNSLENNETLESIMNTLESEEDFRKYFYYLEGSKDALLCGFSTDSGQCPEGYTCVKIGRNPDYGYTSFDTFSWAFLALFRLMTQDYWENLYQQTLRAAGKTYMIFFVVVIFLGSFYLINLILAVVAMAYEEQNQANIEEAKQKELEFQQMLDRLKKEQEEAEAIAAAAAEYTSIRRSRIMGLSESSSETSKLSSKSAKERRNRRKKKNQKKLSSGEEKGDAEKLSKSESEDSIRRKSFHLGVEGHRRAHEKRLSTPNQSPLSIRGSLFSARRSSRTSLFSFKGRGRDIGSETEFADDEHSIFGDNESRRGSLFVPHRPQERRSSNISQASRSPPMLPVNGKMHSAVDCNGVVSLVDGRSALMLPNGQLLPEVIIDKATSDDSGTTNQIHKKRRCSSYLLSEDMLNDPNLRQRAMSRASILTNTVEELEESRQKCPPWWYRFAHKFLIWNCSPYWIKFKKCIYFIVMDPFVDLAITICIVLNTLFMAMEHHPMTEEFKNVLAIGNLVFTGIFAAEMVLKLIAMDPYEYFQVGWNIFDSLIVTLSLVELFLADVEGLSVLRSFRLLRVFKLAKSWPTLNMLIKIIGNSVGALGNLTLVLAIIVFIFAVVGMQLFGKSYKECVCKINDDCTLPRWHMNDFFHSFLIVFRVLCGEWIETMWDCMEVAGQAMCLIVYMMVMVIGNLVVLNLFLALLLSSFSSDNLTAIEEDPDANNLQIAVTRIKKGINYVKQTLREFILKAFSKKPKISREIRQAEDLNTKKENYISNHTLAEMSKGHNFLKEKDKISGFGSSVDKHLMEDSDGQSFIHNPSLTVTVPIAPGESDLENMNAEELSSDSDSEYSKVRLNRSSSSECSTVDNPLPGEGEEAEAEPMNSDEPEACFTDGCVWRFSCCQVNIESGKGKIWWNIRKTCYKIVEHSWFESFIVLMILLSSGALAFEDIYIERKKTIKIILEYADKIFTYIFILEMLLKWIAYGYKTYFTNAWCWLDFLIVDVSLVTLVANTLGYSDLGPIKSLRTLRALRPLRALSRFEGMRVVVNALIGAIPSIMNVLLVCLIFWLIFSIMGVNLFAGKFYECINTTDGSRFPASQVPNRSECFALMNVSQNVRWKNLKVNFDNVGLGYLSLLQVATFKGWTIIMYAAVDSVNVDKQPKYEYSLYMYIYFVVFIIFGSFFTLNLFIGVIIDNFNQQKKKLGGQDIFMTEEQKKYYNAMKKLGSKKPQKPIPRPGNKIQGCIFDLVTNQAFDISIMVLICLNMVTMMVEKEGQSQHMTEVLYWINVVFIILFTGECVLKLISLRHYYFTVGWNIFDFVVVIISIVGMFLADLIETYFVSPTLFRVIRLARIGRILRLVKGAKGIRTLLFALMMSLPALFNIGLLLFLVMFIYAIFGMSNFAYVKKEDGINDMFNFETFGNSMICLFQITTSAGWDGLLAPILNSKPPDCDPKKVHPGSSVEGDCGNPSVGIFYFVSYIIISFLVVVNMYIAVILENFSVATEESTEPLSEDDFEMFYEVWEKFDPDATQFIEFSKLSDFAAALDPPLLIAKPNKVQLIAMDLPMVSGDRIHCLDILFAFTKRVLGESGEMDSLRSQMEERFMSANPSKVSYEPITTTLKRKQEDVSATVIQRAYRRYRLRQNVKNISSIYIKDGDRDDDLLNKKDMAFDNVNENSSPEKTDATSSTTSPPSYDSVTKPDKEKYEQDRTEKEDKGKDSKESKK
- Assay remarks: Inhibition of human voltage-gated sodium channel 1.7 expressed in HEK293 cells assessed as changes in membranre potential after 45 mins by FRET analysis
Metric: pIC50
Kindly note that pIC50 refers to -log10 of the concentration in mol/L and answer with the value alone.

Data request: Please look at this compound and report its pIC50: CCCCCCCC(O)(C(N)=O)c1cccc(Cl)c1 (racemic)
Data returned: 5.74
